Sourced from paper PMC9856044

System: Fibroblasts
test.summary: MTT cytotoxicity assay, normal human skin fibroblasts
Assay type: cell-based
recorded.conditions: Fibroblast, 72 h incubation, ± SD
Experimental: Human cervical carcinoma HeLa (GIBCO BRL, Invitrogen, Waltham, MA, USA), human melanoma MDA-MB-435S and human ovarian adenocarcinoma SK-OV-3 (ATCC-LGC Standards GmbH, Wesel, Germany) cell lines were purchased from indicated cell culture banks. […] Three hours later, formazan crystals were dissolved in DMSO (0.17 mL/well), the plates were mechanically agitated for 20 min and the optical density at 600 nm was determined on a microtiter plate reader (Awareness Technology Inc., Palm City, FL, USA). […]
In this section, each of the molecules is paired with its reported IC50.

Look up Fibroblasts data: IC50 of C[n+]1c(C=C2Sc3ccccc3N2CCCS(=O)(=O)[O-])[se]c2ccccc21 , then report it.
> 40 µM

Find IC50 for C[n+]1c(/C=C2\Sc3ccccc3N2CCCS)[se]c2ccccc21 on Fibroblasts and write it down.
> 40 µM

Identify measured IC50 obtained with Fibroblasts for C[n+]1c(/C=C2\Sc3ccccc3N2CCS)[se]c2ccccc21 .
> 40 µM

Give IC50 for this entry on Fibroblasts: CN1/C(=C/c2[se]c3ccccc3[n+]2C)Sc2cc(Cl)ccc21
> 2.5 µM

Give IC50; test system Fibroblasts; molecule CN1/C(=C/c2[se]c3ccccc3[n+]2C)Sc2ccccc21
2.38 µM
